# Tested on: HμRELhumanPool 96-well hepatic co-culture
# protocol_details: Hμrel Low Clearance Assay
# Format: in vitro ADME, human
# condition_details: human hepatic co-culture, 1 μM substrate, 0-72 hr incubation
Label rule, in plain words: Half-Life of 40 h and up is Y, under 40 h is N.

>  <compound>
[2H]C([2H])([2H])C(C)(NC(=O)CN1C([2H])([2H])C([2H])([2H])C([2H])(CNC(=O)c2cc(F)cc(Cl)c2)C([2H])([2H])C1([2H])[2H])C([2H])([2H])[2H]

>  <group_label>
N

$$$$
>  <compound>
[2H]C1([2H])CC(CNC(=O)c2cc(F)cc(Cl)c2)CC([2H])([2H])N1CC(=O)NC(C)(C([2H])([2H])[2H])C([2H])([2H])[2H]

>  <group_label>
Y

$$$$
>  <compound>
[2H]C1([2H])CN(CC(=O)NC(C([2H])([2H])[2H])(C([2H])([2H])[2H])C([2H])([2H])[2H])CC([2H])([2H])C1CNC(=O)c1cc(F)cc(Cl)c1

>  <group_label>
N

$$$$
>  <compound>
[2H]C1([2H])CN(CC(=O)NC(C)(C)C)CC([2H])([2H])C1CNC(=O)c1cc(F)cc(Cl)c1

>  <group_label>
N

$$$$
>  <compound>
[2H]C([2H])(C(=O)NC(C)(C([2H])([2H])[2H])C([2H])([2H])[2H])N1CCC(CNC(=O)c2cc(F)cc(Cl)c2)CC1

>  <group_label>
N

$$$$

---

# measured_on: Recombinant CYP3A4 Supersomes (Homo sapiens, UniProt P08684)
# Construct: purchased
# Sequence (P08684 whole entry): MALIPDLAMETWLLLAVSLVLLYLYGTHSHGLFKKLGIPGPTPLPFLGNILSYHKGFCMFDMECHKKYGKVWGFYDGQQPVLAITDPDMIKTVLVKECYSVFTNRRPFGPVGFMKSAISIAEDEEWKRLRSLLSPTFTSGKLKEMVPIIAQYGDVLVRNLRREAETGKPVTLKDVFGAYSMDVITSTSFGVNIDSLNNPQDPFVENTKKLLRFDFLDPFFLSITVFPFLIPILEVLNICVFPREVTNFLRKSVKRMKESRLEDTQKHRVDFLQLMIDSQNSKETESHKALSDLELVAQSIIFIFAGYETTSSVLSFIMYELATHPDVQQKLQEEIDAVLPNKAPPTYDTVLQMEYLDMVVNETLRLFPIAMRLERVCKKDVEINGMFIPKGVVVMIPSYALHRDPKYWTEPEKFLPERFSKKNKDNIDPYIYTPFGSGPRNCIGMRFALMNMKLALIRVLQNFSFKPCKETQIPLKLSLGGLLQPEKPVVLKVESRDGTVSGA
# protocol_details: Recombinant CYP3A4 Clearance Assay
# Type: in vitro ADME
# condition_details: observed CLint divided by average CLint of undeuterated control compound
endpoint_name: % of Control (intrinsic clearance relative to the control compound) (%)

>  <molecule>
[2H]C1([2H])N(CC(=O)NC(C)(C)C)C([2H])([2H])C([2H])([2H])C([2H])(CNC(=O)c2cc(F)cc(Cl)c2)C1([2H])[2H] [Compound 1]

>  <readout_number>
65.3

$$$$
>  <molecule>
[2H]C([2H])(C(=O)NC(C)(C)C([2H])([2H])[2H])N1CCC(CNC(=O)c2cc(F)cc(Cl)c2)CC1 [Compound 21]

>  <readout_number>
94.4

$$$$
>  <molecule>
[2H]C([2H])(C(=O)NC(C)(C)C)N1CCC(CNC(=O)c2cc(F)cc(Cl)c2)CC1 [Compound 6]

>  <readout_number>
77.2

$$$$
>  <molecule>
[2H]C([2H])(C(=O)NC(C([2H])([2H])[2H])(C([2H])([2H])[2H])C([2H])([2H])[2H])N1CCC(CNC(=O)c2cc(F)cc(Cl)c2)CC1 [Compound 15]

>  <readout_number>
82.9

$$$$
>  <molecule>
CC(C)(C)NC(=O)CN1CCC(CNC(=O)c2cc(F)cc(Cl)c2)CC1 [Control, reference compound]

>  <readout_number>
100

$$$$
>  <molecule>
[2H]C1([2H])CN(CC(=O)NC(C)(C([2H])([2H])[2H])C([2H])([2H])[2H])CC([2H])([2H])C1CNC(=O)c1cc(F)cc(Cl)c1 [Compound 23]

>  <readout_number>
86.2

$$$$
>  <molecule>
[2H]C([2H])(NC(=O)c1cc(F)cc(Cl)c1)C1CCN(CC(=O)NC(C)(C)C)CC1 [Compound 4]

>  <readout_number>
98.6

$$$$
>  <molecule>
[2H]C([2H])(NC(=O)c1cc(F)cc(Cl)c1)C1CCN(CC(=O)NC(C([2H])([2H])[2H])(C([2H])([2H])[2H])C([2H])([2H])[2H])CC1 [Compound 5]

>  <readout_number>
94.1

$$$$
>  <molecule>
[2H]C1([2H])CN(CC(=O)NC(C)(C)C)CC([2H])([2H])C1CNC(=O)c1cc(F)cc(Cl)c1 [Compound 3]

>  <readout_number>
82.3

$$$$
>  <molecule>
[2H]C([2H])([2H])C(NC(=O)CN1C([2H])([2H])C([2H])([2H])C([2H])(CNC(=O)c2cc(F)cc(Cl)c2)C([2H])([2H])C1([2H])[2H])(C([2H])([2H])[2H])C([2H])([2H])[2H] [Compound 12]

>  <readout_number>
60.3

$$$$
>  <molecule>
[2H]C1([2H])CN(CC(=O)NC(C)(C)C([2H])([2H])[2H])CC([2H])([2H])C1CNC(=O)c1cc(F)cc(Cl)c1 [Compound 9]

>  <readout_number>
76.6

$$$$
>  <molecule>
[2H]C1([2H])CC(CNC(=O)c2cc(F)cc(Cl)c2)CC([2H])([2H])N1CC(=O)NC(C)(C)C([2H])([2H])[2H] [Compound 22]

>  <readout_number>
87.5

$$$$

---

# System: HμRELhumanPool 96-well hepatic co-culture
# protocol_details: Hμrel Low Clearance Assay
# Format: in vitro ADME, human
# Parameters: tested at 1 µM
# condition_details: observed CLint divided by average CLint of undeuterated control compound
Overview of recorded % of Control (intrinsic clearance relative to the control compound) for various molecules
endpoint_name: % of Control (intrinsic clearance relative to the control compound)

>  <molecule>
[2H]C([2H])(NC(=O)c1cc(F)cc(Cl)c1)C1CCN(CC(=O)NC(C)(C)C)CC1 [Compound 4]

>  <result>
106%

$$$$
>  <molecule>
[2H]C([2H])(NC(=O)c1cc(F)cc(Cl)c1)C1CCN(CC(=O)NC(C([2H])([2H])[2H])(C([2H])([2H])[2H])C([2H])([2H])[2H])CC1 [Compound 5]

>  <result>
93.3%

$$$$
>  <molecule>
[2H]C([2H])([2H])C(C)(NC(=O)CN1CCC(CNC(=O)c2cc(F)cc(Cl)c2)CC1)C([2H])([2H])[2H] [Compound 14]

>  <result>
62.5%

$$$$

---

# Tested on: HμRELhumanPool 96-well hepatic co-culture
# protocol_details: Hμrel Low Clearance Assay
# Type: in vitro ADME, human
# Design: tested at 1 µM
# condition_details: observed CLint divided by average CLint of undeuterated control compound
# Procedure: The Hμrel Low Clearance Assay was performed to determine the stability of deuterated compounds described herein and calculate changes in clearance relative to the control compound (undeuterated compound) that has the following structure: […] LC-MS/MS chromatograms were analyzed by peak area ratio (test article peak area/internal standard peak area) and natural log transformed, and plotted against time. The slope of the line was determined to calculate elimination rate constant. […]
endpoint_name: % of Control (intrinsic clearance relative to the control compound) (%)

>  <molecule>
[2H]C([2H])(C(=O)NC(C)(C([2H])([2H])[2H])C([2H])([2H])[2H])N1CCC(CNC(=O)c2cc(F)cc(Cl)c2)CC1 [Compound 17]

>  <readout_number>
83.4

$$$$
>  <molecule>
[2H]C([2H])(C(=O)NC(C)(C)C)N1CCC(CNC(=O)c2cc(F)cc(Cl)c2)CC1 [Compound 6]

>  <readout_number>
99.6

$$$$
>  <molecule>
CC(C)(C)NC(=O)CN1CCC(CNC(=O)c2cc(F)cc(Cl)c2)CC1 [Control, reference compound]

>  <readout_number>
100

$$$$
>  <molecule>
[2H]C([2H])(C(=O)NC(C)(C)C([2H])([2H])[2H])N1CCC(CNC(=O)c2cc(F)cc(Cl)c2)CC1 [Compound 21]

>  <readout_number>
103

$$$$
>  <molecule>
[2H]C1([2H])CC(CNC(=O)c2cc(F)cc(Cl)c2)CC([2H])([2H])N1CC(=O)NC(C([2H])([2H])[2H])(C([2H])([2H])[2H])C([2H])([2H])[2H] [Compound 16]

>  <readout_number>
76.3

$$$$
>  <molecule>
[2H]C1([2H])CC(CNC(=O)c2cc(F)cc(Cl)c2)CC([2H])([2H])N1CC(=O)NC(C)(C)C([2H])([2H])[2H] [Compound 22]

>  <readout_number>
62.6

$$$$

---

# protocol_details: Hμrel Low Clearance Assay
# Assay type: in vitro ADME, human
# condition_details: human, HμRELhumanPool 96-well hepatic co-culture, human hepatic co-culture, 1 μM substrate, 0-72 hr incubation; control = geometric mean of 3 replicates
Label rule, in plain words: hepatocyte CLint at 1 μM of 0.9 µL/min/1e6 cells and up is y, under 0.9 µL/min/1e6 cells is n.

>  <molecule>
[2H]C1([2H])CN(CC(=O)NC(C)(C)C([2H])([2H])[2H])CC([2H])([2H])C1CNC(=O)c1cc(F)cc(Cl)c1 [Compound 9]

>  <group_label>
y

$$$$
>  <molecule>
[2H]C([2H])([2H])C(NC(=O)CN1C([2H])([2H])C([2H])([2H])C([2H])(CNC(=O)c2cc(F)cc(Cl)c2)C([2H])([2H])C1([2H])[2H])(C([2H])([2H])[2H])C([2H])([2H])[2H] [Compound 12]

>  <group_label>
n

$$$$
>  <molecule>
[2H]C([2H])([2H])C(C)(NC(=O)CN1C([2H])([2H])C([2H])([2H])C([2H])(CNC(=O)c2cc(F)cc(Cl)c2)C([2H])([2H])C1([2H])[2H])C([2H])([2H])[2H] [Compound 20]

>  <group_label>
n

$$$$
